This collection of values is drawn from ChEMBL document CHEMBL1139828.

Species: Homo sapiens
procedure-text: Selectivity index, ratio of IC50 for […]
property-label: Ratio IC50

CS(=O)(=O)c1ccc(C2SCC(=O)N2c2ccccc2)cc1 (centres undefined) = 480
Cc1ccc(N2C(=O)CSC2c2ccc(S(C)(=O)=O)cc2)cc1 (centres undefined) = 359

* * *

assayed-system: Prostaglandin G/H synthase 2 (Homo sapiens, UniProt P35354)
Sequence (P35354 whole entry): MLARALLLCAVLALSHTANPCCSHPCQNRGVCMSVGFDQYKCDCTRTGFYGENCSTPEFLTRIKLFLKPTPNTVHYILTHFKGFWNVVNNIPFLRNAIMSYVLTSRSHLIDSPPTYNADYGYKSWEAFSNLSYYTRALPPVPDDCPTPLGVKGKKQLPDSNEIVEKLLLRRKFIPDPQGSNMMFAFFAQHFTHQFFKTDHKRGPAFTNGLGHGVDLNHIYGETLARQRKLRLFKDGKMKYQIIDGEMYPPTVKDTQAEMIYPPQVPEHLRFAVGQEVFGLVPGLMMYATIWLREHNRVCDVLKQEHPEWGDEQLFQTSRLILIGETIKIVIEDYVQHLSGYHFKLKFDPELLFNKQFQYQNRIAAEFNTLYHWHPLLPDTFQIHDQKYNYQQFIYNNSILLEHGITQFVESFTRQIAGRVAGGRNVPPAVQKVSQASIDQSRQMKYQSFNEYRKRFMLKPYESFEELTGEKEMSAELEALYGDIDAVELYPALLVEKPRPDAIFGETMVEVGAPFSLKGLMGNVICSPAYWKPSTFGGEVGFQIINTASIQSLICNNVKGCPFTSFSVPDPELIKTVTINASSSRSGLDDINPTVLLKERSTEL
property-label: pIC50
Interpret pIC50 as the negative base-10 log of the concentration measured in mol/L.

Recall and state the measured pIC50 for CS(=O)(=O)c1ccc(C2SCC(=O)N2c2ccc(F)cc2)cc1 (stereo unspecified) .
6.92
